Recorded TGI by entry
system: HOP-62 NSCLC; test: NCI tumour cell line growth inhibition, 48 h

Compound | TGI
Cc1ccc(S(=O)(=O)NC(=O)NCCc2ccccc2)cc1 | > 100 µM
COc1ccc(NC(=S)NNC(=O)c2nsc3ccccc23)cc1 | > 100 µM
Cc1c(O)c(OC2OC(CO)C(O)C(O)C2O)cc2c1C=C[C@@H]1[C@@]2(C)C(=O)C[C@]2(C)[C@@H]([C@@](C)(O)C(O)/C=C/C(C)(C)O)[C@H](O)C[C@@]12C (some centres undefined) | > 100 µM
O=C1N2Cc3c4ccc5c3CN3C(=O)N6Cc7c(ccc(c7CN1C6(c1ccccc1)C23c1ccccc1)OCCOCCOc1cc(Br)c(Br)cc1OCCOCCO4)OCCOCCOc1cc(Br)c(Br)cc1OCCOCCO5 (centres undefined) | > 100 µM
Cc1c(O)c(OC2OC(CO)C(O)C(O)C2O)cc2c1CC[C@@H]1C2(C)C(=O)C[C@]2(C)[C@@H]([C@@](C)(O)C3CCC(C)(C)O3)[C@H](O)C[C@@]12C (some centres undefined) | > 100 µM
Cc1c[nH]c(C(=O)O)c1-c1cccn1-c1ccc(Cl)cc1[N+](=O)[O-] | > 100 µM
O=C(O)Cc1ccc(Nc2nc3ccccc3nc2C(=O)O)cc1 | > 100 µM
CC[C@H](C)C1=C(OC(C)=O)[N@+]2([O-])Oc3ccc(-c4c(O)c(O)c(-c5ccc(OC(C)=O)cc5)c(OC(C)=O)c4OC(C)=O)cc3O[C@]2([C@@H](C)CC)C(=O)N1O | > 50 µM
CCCCCCCCOCC(O)CO (centres undefined) | > 100 µM
CCN(CC)c1c(-c2ccccc2)n[nH]c1C(=O)OC | > 100 µM
Cc1ccc(S(=O)(=O)OCC#CCOS(=O)(=O)c2ccc(C)cc2)cc1 | 5.69 µM
COC(=O)CN(CC(O)C(NC(C)=O)C(O)C=O)C(=O)OCc1ccccc1 (centres undefined) | > 100 µM
Cn1c(=O)nc2n(-c3ccc(Cl)cc3)c(-c3ccccc3)c(-c3ccccc3)nc-2c1=O | 66.7 µM
O=[P+](O)c1ccccn1 | > 100 µM
O=C(c1ccco1)N(C(=S)N1CCN(c2ccccc2)CC1)C1CCCCC1 | > 100 µM
CC(=O)Oc1ccc2c(c1)[C@@]1(C)CCCC(C)(C)[C@@H]1CC2 | 30.2 µM
Cc1cc(C)c2c(n1)S(=O)(=O)N(CCCN1CCN(c3cccc(Cl)c3)CC1)/C(=C(\O)c1ccccc1)C2=O | > 100 µM
CC1=NN(c2nc(N)nc(CSc3cc(Cl)c(C)cc3S(N)(=O)=O)n2)C(C)(C)C1 | > 10 µM
O=C1CNC(=O)/C(=C/c2c[nH]c3ccccc23)N1 | > 100 µM
